biological target: FGF2 (Homo sapiens, UniProt P09038 P09038:135-288); test: inhibition; SPR inhibition of FGF2-FGFR1alpha(IIIc); each 0.1 uM; conditions: tags: Peprotech
Sequence (P09038 135-288, one chain of several): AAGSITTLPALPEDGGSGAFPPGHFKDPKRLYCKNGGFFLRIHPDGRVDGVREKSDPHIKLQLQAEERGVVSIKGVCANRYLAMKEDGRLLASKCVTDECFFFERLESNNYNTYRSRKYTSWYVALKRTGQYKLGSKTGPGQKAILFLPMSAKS
Reported activity is given for each of the following binders.
parameter: activity

- GGAUACUAGGGCAUUAAUGUUACCAGUGUAGUCC (ssRNA, 2'-F at U7,G11,U15,U20,G26,U27,U29; 2'-OH at G28; all others 2'-OMe; PS between G28 and U29; 3' idT) [aptamer ID 4(4)]: 96%
- GGGAUACUAGGGCAUUAAUGUUACCAGUGUAGUCCC (ssRNA, 2'-OMe at G1,G2,G3,A4,C7,A9,G10,G11,A14,A17,A18,G20,A23,A26; other C and U 2'-F; other purines 2'-OH) [aptamer ID 3(16)]: 87%
- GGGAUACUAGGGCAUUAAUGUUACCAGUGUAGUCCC (ssRNA, all C and U 2'-F; 2'-OMe at G32; other purines 2'-OH) [aptamer ID 3(10)]: 89%
